biological target: GORASP1, Q9BQQ3; assay: holdup assay; set-up: key: below the threshold = too weak to quantify, mostly under pKd 3.1 to 4; details: plain residues with an end cap or a label only (N-terminal biotin on a linker: ado-ado)
Sequence (Q9BQQ3 1-208): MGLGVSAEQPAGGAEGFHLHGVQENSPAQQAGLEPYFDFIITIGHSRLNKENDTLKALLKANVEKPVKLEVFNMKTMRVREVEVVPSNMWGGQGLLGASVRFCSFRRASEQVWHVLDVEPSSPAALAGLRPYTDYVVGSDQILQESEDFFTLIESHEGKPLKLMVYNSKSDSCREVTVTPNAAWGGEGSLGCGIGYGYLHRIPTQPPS
endpoint: pKd

Worked examples, 7 binders total:
binder="GSGAVEMESV [AQP6, Q13520]" endpoint=pKd reported_measurement="below the threshold"
binder="TACCHSETVV [TGFA, P01135]" endpoint=pKd reported_measurement=3.67
binder="YRLAQESGLV [ABCC6, O95255]" endpoint=pKd reported_measurement="below the threshold"
binder="HSGYRLNDYV [CLDN14, O95500]" endpoint=pKd reported_measurement=3.75
binder="IPLDGETEEL [MYOZ1, Q9NP98]" endpoint=pKd reported_measurement="below the threshold"
binder="QSARLWETSI [ADAM22, Q9P0K1]" endpoint=pKd reported_measurement="below the threshold"
binder="LKVPPEERLI [CRB2, Q5IJ48]" endpoint=pKd reported_measurement="below the threshold"

pKd lookup needed for SAAKVLTSMC [GHRHR, Q02643] , thanks.
below the threshold
